# Test system: cerebral oxidative stress induced in mice by doxorubicin
# PROTOCOL_TEXT: In vivo assay of cerebral oxidative stress induced in mice by doxorubicin
# COND: % inhibition relative to variation due to doxorubicin alone, oxidized animals, as function of its own control
Listing: GPX/pr its own of selected compounds
MEASURED_METRIC: GPX/pr its own (%)

- COMPOUND: "CC1(C)CC(=O)C=C(NCCN2CCCCC2)C1"
  TESTED_SYSTEM: "cerebral oxidative stress induced in mice by doxorubicin"
  RESULT_UNITS: "%"
  RECORDED_NUMBER: -16.2
- COMPOUND: "CC1(C)CC(=O)C=C(N(O)Cc2cccnc2)C1"
  TESTED_SYSTEM: "cerebral oxidative stress induced in mice by doxorubicin"
  RESULT_UNITS: "%"
  RECORDED_NUMBER: -6.1
- COMPOUND: "CC1(C)CC(=O)C=C(NN2CCCCC2)C1"
  TESTED_SYSTEM: "cerebral oxidative stress induced in mice by doxorubicin"
  RESULT_UNITS: "%"
  RECORDED_NUMBER: -100.0
- COMPOUND: "O=C1C=C(NCCN2CCCCC2)CC(c2ccccc2)C1 (stereo not shown)"
  TESTED_SYSTEM: "cerebral oxidative stress induced in mice by doxorubicin"
  RESULT_UNITS: "%"
  RECORDED_NUMBER: 23.2

* * *

As shown below, each of these molecules has a reported Prot. Ox/pr vehicle value.
# System: cerebral oxidative stress induced in mice by doxorubicin
# PROTOCOL_TEXT: In vivo assay of cerebral oxidative stress induced in mice by doxorubicin
# COND: % inhibition relative to variation due to doxorubicin alone, oxidized animals, as function of vehicle
MEASURED_METRIC: Prot. Ox/pr vehicle

- MOLECULE: "CC1(C)CC(=O)C=C(N(O)Cc2cccnc2)C1"
  TESTED_SYSTEM: "cerebral oxidative stress induced in mice by doxorubicin"
  RESULT: "-106.4%"
- MOLECULE: "O=C1C=C(NCCN2CCCCC2)CC(c2ccccc2)C1 (stereo not shown)"
  TESTED_SYSTEM: "cerebral oxidative stress induced in mice by doxorubicin"
  RESULT: "-107.0%"
- MOLECULE: "CC1(C)CC(=O)C=C(NN2CCCCC2)C1"
  TESTED_SYSTEM: "cerebral oxidative stress induced in mice by doxorubicin"
  RESULT: "21.5%"
- MOLECULE: "CC1(C)CC(=O)C=C(NCCN2CCCCC2)C1"
  TESTED_SYSTEM: "cerebral oxidative stress induced in mice by doxorubicin"
  RESULT: "-82.6%"

* * *

# Test system: cerebral oxidative stress induced in mice by doxorubicin
# PROTOCOL_TEXT: In vivo assay of cerebral oxidative stress induced in mice by doxorubicin
# COND: % inhibition relative to variation due to doxorubicin alone, oxidized animals, as function of its own control

- COMPOUND: "O=C1C=C(NCCN2CCCCC2)CC(c2ccccc2)C1 (stereo not shown)"
  TESTED_SYSTEM: "cerebral oxidative stress induced in mice by doxorubicin"
  GST/pr its own: "37.4%"
- COMPOUND: "CC1(C)CC(=O)C=C(N(O)Cc2cccnc2)C1"
  TESTED_SYSTEM: "cerebral oxidative stress induced in mice by doxorubicin"
  GST/pr its own: "-34.1%"
- COMPOUND: "CC1(C)CC(=O)C=C(NCCN2CCCCC2)C1"
  TESTED_SYSTEM: "cerebral oxidative stress induced in mice by doxorubicin"
  GST/pr its own: "5.5%"
- COMPOUND: "CC1(C)CC(=O)C=C(NN2CCCCC2)C1"
  TESTED_SYSTEM: "cerebral oxidative stress induced in mice by doxorubicin"
  GST/pr its own: "-36.3%"
